In this section, each of the molecules is paired with its reported MIC.
# Test system: E. coli DH5α
# test.protocol: Antibacterial activity: MIC and growth curve against E. coli DH5α in 96-well plate
# Type: cell-based
# stated.conditions: minimal inhibitory concentration against E. coli DH5α; 96-well plate, 5×10^5 CFU/mL, 37° C., judged after 8 h
Write your answer as a measured quantity: the number, then the unit.

PRT551 (protein, listed as Homo sapiens) CNCYGHATDCYYDPEVDRRRASQSLDGTYQGGGVCIDCQHHTTGVNCERCLPGFYRSPNHPLDSPHVCRR = 12.5 µg/mL
PRT499 (protein, listed as Homo sapiens) CNCHNKAKDCYYDESVAKQKKSLNTAGQFRGGGVCINCLQNTMGINCETCIDGYYRPHKVSPYEDEPCRP = 12.5 µg/mL
PRT514 (protein, listed as Homo sapiens) CNCHGKAEECYYDENVARRNLSLNIRGKYIGGGVCINCTQNTAGINCETCTDGFFRPKGVSPNYPRPCQP = 50 µg/mL

Q: // MIC lookup, key: PRT480 (protein, listed as Homo sapiens) VCSLHLCRNNGRCIRKMWNAPSYLHLNPASYHIEASEDGEFTVKGKASDTDLAVMADTFSCHCYQGYEGADCR
A: 12.5 µg/mL
